Could you please report measured T/C for the items listed next?
# Test system: P388 leukemia ip, CD2F1 mice, survival T/C
# test-details: NCI In Vivo Anticancer Drug Screen. Data for tumor model P388 Leukemia (intraperitoneal) in CD2F1 (CDF1) mice
# applied-conditions: endpoint: median survival time; dose: 200.0 mg/kg/injection; schedule: Q01DX005 (ip); vehicle: saline with Tween-80; higher = longer survival
Inconclusive results and toxic doses are left out.

Exercise: What value of measured T/C is listed for N#CCCSC(=S)N1CCN(C(=S)SCCC#N)C1=O ?
Solution: 92 % of control

Exercise: What value of measured T/C is listed for [N-]=[N+]=NC12CC3CC4C5CC(CC41)CC2[C@H]5C3 ?
Solution: 100 % of control

Exercise: What value of measured T/C is listed for CC(C)CN1CC(=O)N2Cc3ccccc3CN2C(=O)C1 ?
Solution: 103 % of control

Exercise: What value of measured T/C is listed for C(=N[C@H]1CCCC[C@H]1N=Cc1ccccn1)c1ccccn1 ?
Solution: 101 % of control

Exercise: What value of measured T/C is listed for CC1=C/C(=C(\c2cc(C)c(O)c(C(=O)O)c2)c2c(Cl)cccc2Cl)C=C(C(=O)O)C1=O ?
Solution: 100 % of control

Exercise: What value of measured T/C is listed for CCCCC(CC)C(=O)OCCCNC(=O)C(C)OC(=O)C(CC)CCCC (centres undefined) ?
Solution: 104 % of control

Exercise: What value of measured T/C is listed for CCOC(=O)CC(C)P(c1ccccc1)C(C)CC(=O)OCC (centres undefined) ?
Solution: 102 % of control

Exercise: What value of measured T/C is listed for Cc1nn(C(=S)S)c(C)c1N=Nc1cccc(F)c1 ?
Solution: 106 % of control

Exercise: What value of measured T/C is listed for COC(=O)[C@H](NC(=O)c1ccccc1)[C@@H](O)/C=C/c1ccccc1 ?
Solution: 87 % of control

Exercise: What value of measured T/C is listed for O=C1NCC2CCCC1C2 (centres undefined) ?
Solution: 97 % of control

Exercise: What value of measured T/C is listed for CCOc1c(N=Nc2ccccc2OC)c(-c2ccccc2)nn1C(N)=S ?
Solution: 98 % of control

Exercise: What value of measured T/C is listed for Cc1ccc(-c2nc3ccccc3c(=O)n2/N=C/c2ccc(O)cc2)cc1 ?
Solution: 89 % of control

Exercise: What value of measured T/C is listed for COP(=O)(CCC1OCCO1)OC ?
Solution: 99 % of control

Exercise: What value of measured T/C is listed for COc1ccc(Cc2c(O)ccc3ccccc23)cc1 ?
Solution: 111 % of control

Exercise: What value of measured T/C is listed for O=C1C2C3C=CC(O3)C2C(=O)N1/N=C\C(O)C(O)C(O)C(O)CO (centres undefined) ?
Solution: 95 % of control

Exercise: What value of measured T/C is listed for Cc1nn(C(=S)S)c(C)c1N=Nc1ccccc1Cl ?
Solution: 108 % of control

Exercise: What value of measured T/C is listed for N#CCCn1nc(SCc2ccccc2)c(=S)[nH]c1=O ?
Solution: 100 % of control

Exercise: What value of measured T/C is listed for COc1ccc(B2OCCO2)cc1 ?
Solution: 101 % of control

Exercise: What value of measured T/C is listed for CCOC(=O)C(NC(=O)OC(C)(C)C)C(C)C (centres undefined) ?
Solution: 100 % of control

Exercise: What value of measured T/C is listed for Ic1ccc(Nc2ncnc3sc4c(c23)CCCC4)cc1 ?
Solution: 92 % of control

Exercise: What value of measured T/C is listed for Nc1ncnc2nc(/N=N/SCCC(=O)O)[nH]c12 ?
Solution: 100 % of control

Exercise: What value of measured T/C is listed for COc1ccc(S(=O)(=O)N/N=C/c2cc(I)cc([N+](=O)[O-])c2O)cc1 ?
Solution: 104 % of control

Exercise: What value of measured T/C is listed for FC(F)(F)C(OP(OC(C(F)(F)F)C(F)(F)F)OC(C(F)(F)F)C(F)(F)F)C(F)(F)F ?
Solution: 92 % of control

Exercise: What value of measured T/C is listed for CC(NC(=O)OC(C)(C)C)C(=O)NC(C)C(=O)NC(C)C(=O)OCc1ccccc1 (centres undefined) ?
Solution: 101 % of control

----------
# System: P388 leukemia ip, CD2F1 mice, survival T/C
# test-details: NCI In Vivo Anticancer Drug Screen. Data for tumor model P388 Leukemia (intraperitoneal) in CD2F1 (CDF1) mice
# applied-conditions: endpoint: median survival time; dose: 50.0 mg/kg/injection; schedule: Q04DX003 (ip); vehicle: saline; higher = longer survival
Toxic doses and inconclusive results are not listed.
reported-metric: T/C

Exercise: What value of measured T/C is listed for CNCCSSCCN ?
Solution: 90 % of control

Exercise: What value of measured T/C is listed for CCC[As](=O)(O)CCC ?
Solution: 109 % of control

Exercise: What value of measured T/C is listed for CN(C)CCCN1c2ccccc2Sc2ccc(Cl)cc21 ?
Solution: 105 % of control

Exercise: What value of measured T/C is listed for CCOP(O)(=S)OCC.[Fe] ?
Solution: 97 % of control

----------
# Tested on: P388 leukemia ip, CD2F1 mice, survival T/C
# test-details: NCI In Vivo Anticancer Drug Screen. Data for tumor model P388 Leukemia (intraperitoneal) in CD2F1 (CDF1) mice
# applied-conditions: endpoint: median survival time; dose: 25.0 mg/kg/injection; schedule: Q01DX009 (ip); vehicle: Klucel (hydroxypropylcellulose) (HPC); higher = longer survival
Inconclusive results and toxic doses are left out.
Could you please report measured T/C for the items listed next?

Exercise: What value of measured T/C is listed for NNC(=O)C1CCN1C(c1ccccc1)c1ccccc1 (stereo not drawn) ?
Solution: 102 % of control

Exercise: What value of measured T/C is listed for Cc1ccc(OP(=O)(Oc2ccc(C)cc2)Oc2ccc(C)cc2)cc1.Cc1ccc(OP(=O)(Oc2ccc(C)cc2)Oc2ccc(C)cc2)cc1.Cc1ccc(OP(=O)(Oc2ccc(C)cc2)Oc2ccc(C)cc2)cc1.Cc1ccc(OP(=O)(Oc2ccc(C)cc2)Oc2cccc(C)c2)cc1.[Cd+2].[O-][Cl+3]([O-])([O-])O ?
Solution: 96 % of control

Exercise: What value of measured T/C is listed for Nc1nc2ccc(CNc3ccc(C(=O)NC(CC(=O)O)C(=O)O)cc3)cc2c(=O)[nH]1 (stereo not drawn) ?
Solution: 96 % of control

Exercise: What value of measured T/C is listed for C=CCn1/c(=N\NC(=O)c2ccncc2)sc2ccccc21 ?
Solution: 103 % of control

Exercise: What value of measured T/C is listed for CNc1nc2c(s1)c1c(O)c3c(O)c(C)c4c(c32)C(=O)C(C)(O/C=C/C(OC)C(C)C(OC(C)=O)C(C)C(O)C(C)C(O)C(C)/C=C/C=C(/C)C(=O)N1)O4 (stereo not drawn) ?
Solution: 98 % of control

Exercise: What value of measured T/C is listed for O=C1c2ccccc2-c2c3c(cc4ccnc1c24)OCO3 ?
Solution: 99 % of control

Exercise: What value of measured T/C is listed for Clc1ccc(-c2csc3cccc[n+]23)cc1 ?
Solution: 100 % of control

Exercise: What value of measured T/C is listed for Cc1ccc(S(=O)(=O)N(Cl)Cl)cc1 ?
Solution: 108 % of control

----------
# Tested on: P388 leukemia ip, CD2F1 mice, survival T/C
# test-details: NCI In Vivo Anticancer Drug Screen. Data for tumor model P388 Leukemia (intraperitoneal) in CD2F1 (CDF1) mice
# applied-conditions: endpoint: median survival time; dose: 200.0 mg/kg/injection; schedule: Q01DX001 (ip); vehicle: Klucel (hydroxypropylcellulose) (HPC); higher = longer survival
Toxic doses and inconclusive results are not listed.
reported-metric: T/C

Exercise: What value of measured T/C is listed for Cc1c2c(c(C)c3ccccc13)C(O)C(O)c1ccccc1-2 (stereo not given) ?
Solution: 91 % of control

Exercise: What value of measured T/C is listed for NC(=S)N/N=C/c1c(Br)nc2sccn12 ?
Solution: 89 % of control

Exercise: What value of measured T/C is listed for Nc1nccn2cnnc12 ?
Solution: 104 % of control

Exercise: What value of measured T/C is listed for Cc1ccc(S(=O)(=O)N/N=C/c2c(Cl)n(C(=O)c3cccc(C)c3)c3ccccc23)cc1 ?
Solution: 87 % of control

Exercise: What value of measured T/C is listed for O=c1[nH]c2nc3ccccc3n2c(=O)c2ccccc12 ?
Solution: 98 % of control

Exercise: What value of measured T/C is listed for Clc1ccc(-c2cn3c(n2)SCC3)cc1 ?
Solution: 88 % of control

Exercise: What value of measured T/C is listed for O=Cc1c(Br)n(-c2ccccc2)c2ccccc12 ?
Solution: 100 % of control

Exercise: What value of measured T/C is listed for COC(=O)C1CCC(c2ccccc2)(c2ccccc2)C1=O.COC(=O)C1CCC(c2ccccc2)(c2ccccc2)C1=O.[Cu] (stereo not given) ?
Solution: 100 % of control

Exercise: What value of measured T/C is listed for CN(/N=C\c1ccccc1)C(=N)N(C)/N=C/c1ccccc1 ?
Solution: 96 % of control

Exercise: What value of measured T/C is listed for COc1cc2c(OC)c(c1)CCC1=CC(=O)C(=CC1=O)CC2 ?
Solution: 96 % of control

// provenance: PubChem BioAssay AID330
